- system.under.test: SOS1:KRAS (G12C) interaction (Homo sapiens (Human), UniProt Q07889)
- Sequence (Q07889 564-1049, stated change not applied): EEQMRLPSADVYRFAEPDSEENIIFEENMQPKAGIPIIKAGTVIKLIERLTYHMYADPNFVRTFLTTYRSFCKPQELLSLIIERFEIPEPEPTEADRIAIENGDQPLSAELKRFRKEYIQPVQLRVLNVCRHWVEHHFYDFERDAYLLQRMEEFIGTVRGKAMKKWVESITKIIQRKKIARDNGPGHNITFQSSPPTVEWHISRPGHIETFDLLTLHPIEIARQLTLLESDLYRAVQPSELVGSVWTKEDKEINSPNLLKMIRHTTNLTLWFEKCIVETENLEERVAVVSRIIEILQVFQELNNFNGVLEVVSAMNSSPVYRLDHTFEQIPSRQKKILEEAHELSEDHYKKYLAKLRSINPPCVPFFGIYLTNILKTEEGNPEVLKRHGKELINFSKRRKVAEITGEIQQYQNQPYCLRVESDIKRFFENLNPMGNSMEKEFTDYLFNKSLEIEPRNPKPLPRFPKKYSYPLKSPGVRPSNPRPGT
- assay.summary: SOS1-KRas(G12C) FRET Assay
- study.conditions: 0.5 nM His10-SOS1 (res. 564-1049), 2.5 nM GST-KRAS (res. 1-169, G12C); read-out: SOS-KRas(G12C) FRET IC50
Lab note: compare IC50 with 200 nM, writing Criterion met if less and Criterion not met if equal or more.

Here are 3 compounds together with their reported answers.
compound | group
CNCc1ccccc1-c1csc([C@@H](C)Nc2nn(C)c(=O)c3cc(=O)n(C4CC4)cc23)c1 [Example 57] | Criterion met
COc1c(=O)n([C@@H]2CCOC[C@@H]2F)cc2c(N[C@H](C)c3cccc(C(F)F)c3F)nn(C)c(=O)c12 (single isomer, unassigned) [Example 58] | Criterion met
Cc1c([C@@H](C)Nc2nn(C)c(=O)c3cc(=O)n(C45CC(C4)C5)cc23)cccc1C(F)(F)F [Example 16] | Criterion not met

**Query** Item C[C@@H](Nc1nn(C)c(=O)c2c(OC3CC(F)(F)C3)c(=O)n(C3(C(F)F)CC3)cc12)c1cccc(C(F)F)c1F [Example 87] : IC50 beneath 200 nM, strictly?
**Result** Criterion met

**Query** Item C[C@@H](Nc1nn(C)c(=O)c2cc(=O)n([C@H]3CC3(C)C)cc12)c1cccc(C(F)F)c1F (single isomer, unassigned) [Example 133] : IC50 beneath 200 nM, strictly?
**Result** Criterion not met

**Query** Item C[C@@H](Nc1nn(C)c(=O)c2cc(=O)n(C34CC(C(F)(F)F)(C3)C4)cc12)c1cccc(C(F)F)c1F [Example 155] : IC50 beneath 200 nM, strictly?
**Result** Criterion met

---

Below, each of the compounds is paired with its reported IC50 value.
- system.under.test: SOS1:KRAS (G12C) interaction (Homo sapiens (Human), UniProt Q07889)
- assay.summary: SOS1-KRas(G12C) FRET Assay
- study.conditions: 0.5 nM His10-SOS1 (res. 564-1049), 2.5 nM GST-KRAS (res. 1-169, G12C); read-out: SOS-KRas(G12C) FRET IC50
- Procedure: Inhibition of the SOS1:KRAS interaction was measured using purified GST-tagged KRAS (res. 1-169, G12C, purified based on Hillig, et al., Proc Natl Acad Sci USA (2019); 116(7):2551-2560) and recombinant His10-SOS1 (res. 564-1049; purified based on Hillig, et al.). […] Plates were incubated at RT for 2 hrs before the FRET signal was measured using Envision at emission 665 nm and 615 nm. […]
Write the answer as a number in nM, unit excluded.

Example entries and their recorded answers appear below.
compound | metric.name | measured.value
Cc1c([C@@H](C)Nc2nn(C)c(=O)c3cc(=O)n([C@@]4(C)CCOC4)cc23)cccc1C(F)(F)F (single isomer, unassigned) | IC50 | 285
C[C@@H](Nc1nn(C)c(=O)c2cc(=O)n(C3CC4(COC4)C3)cc12)c1cccc(C(F)F)c1F | IC50 | 47.3
Cc1c([C@@H](C)Nc2nn(C)c(=O)c3c(N4CC[C@H](N)C4)c(=O)n(C4CC4)cc23)cccc1C(F)(F)F | IC50 | 300
CC(Nc1nn(C)c(=O)c2cc(=O)n(C3CC3)cc12)c1cc(F)cc(C(F)(F)F)c1 (stereo not shown) | IC50 | 3480
C[C@H](Nc1nn(C)c(=O)c2cc(=O)n(C3CC3)cc12)c1ccc2c(c1)CCCC2 | IC50 | 3790
C[C@@H](Nc1nn(C)c(=O)c2cc(=O)n(C3(C(F)F)CC3)cc12)c1cccc2c(F)coc12 | IC50 | 75.6

**Query** Sample C[C@@H](Nc1nn(C)c(=O)c2cc(=O)n([C@@H]3C[C@H]3C3CC3)cc12)c1cccc(C(F)F)c1F (single isomer, unassigned) — what was its IC50?
**Result** 185
